System: U2OS
Test: Multiplex assay against U2OS
Assay type: toxicity, cell-based
Conditions: human, 24 h, 10 µM, compound concentration 10 uM, replicate 1
Recorded metric: Population Tubulin-Different-Phenotype (%)
Answer format: numeric, % implied, no suffix.

Solved entries:
O=C(NCC(=O)N1CC[C@H](N[C@H]2CC[C@@](O)(c3ccc(-c4ncccn4)cn3)CC2)C1)c1cccc(C(F)(F)F)c1: 3
CN1CCN2c3ncccc3Cc3ccccc3C2C1 (stereo not drawn): 0
CC[C@H]1OC(=O)[C@H](C)[C@@H](O[C@H]2C[C@@](C)(OC)[C@@H](O)[C@H](C)O2)[C@H](C)[C@@H](O[C@@H]2O[C@H](C)C[C@H](N(C)C)[C@H]2O)[C@@]2(C)CC(C)=C(O2)[C@H](C)[C@@H](O)[C@]1(C)O: 76
O=C(O)c1cc2ccccc2c(Cc2c(O)c(C(=O)O)cc3ccccc23)c1O: 3

Identify the reported Population Tubulin-Different-Phenotype (%) for the following entry. CC1(COc2ccc3c(c2)ncn3-c2ccc3cccc(N4CCC(N)CC4)c3n2)COC1
50

Identify the reported Population Tubulin-Different-Phenotype (%) for the following entry. CN(C)CCCc1cc(C(=O)Nc2ccc(-c3ccncc3)cc2)ccc1O.Cl.Cl
1

Identify the reported Population Tubulin-Different-Phenotype (%) for the following entry. C[C@H]1[C@H]2CC[C@H]3[C@@H]4CC=C5C[C@@H](N(C)C)CC[C@]5(C)[C@H]4CC[C@]23CN1C
1

Identify the reported Population Tubulin-Different-Phenotype (%) for the following entry. Oc1c(CN2CCN(c3ccccn3)CC2)cc(Cl)c2cccnc12
7

====

System: U2OS
Test: Multiplex assay against U2OS
Type: toxicity, cell-based
Settings: human, 48 h, 10 µM, compound concentration 10 uM, replicate 1
Recorded metric: Population Normal (%)
Answer format: numeric, % implied, no suffix.

Solved entries:
Cc1nc2ccc(Oc3ccc(F)cc3)cc2c(=O)n1C[C@H]1CCCN(C(C)C)C1.Cl: 94
CCCn1c(=O)c2[nH]c(C3CCCC3)nc2n(CCC)c1=O: 97
CCCC(CCC)C(=O)O [VALPROIC ACID]: 97
CCNC1(C(N)=O)CCN(c2ncnc3c2nc(-c2ccccc2Cl)n3-c2ccc(Cl)cc2)CC1 [OTENABANT]: 92
O=S(=O)(c1ccccc1)c1cnc2c(N3CCNCC3)cccc2c1 [INTEPIRDINE]: 95

Identify the reported Population Normal (%) for the following entry. COc1cc(NC(=O)CCN2CCC(OC(=O)Nc3ccccc3-c3ccccc3)CC2)c(Cl)cc1CNC[C@H](O)c1ccc(O)c2[nH]c(=O)ccc12 [BATEFENTEROL]
93

Identify the reported Population Normal (%) for the following entry. C[C@H](NC(=O)c1c(C(F)F)nn(C)c1Oc1cccc(C(F)(F)F)c1)c1ccc(C(=O)O)cc1 [PALUPIPRANT]
97

Identify the reported Population Normal (%) for the following entry. N[C@@]1(C(=O)O)CO[C@H]2[C@H](C(=O)O)[C@H]21 [LY-379268]
97

Identify the reported Population Normal (%) for the following entry. Cc1ccc(-c2ccc(F)cc2COc2ccc(CCC(=O)O)cc2)cc1
97

====

Test system: Fibroblast
Assay: Multiplex assay against human fibroblast
Format: toxicity, cell-based
Settings: 12 h, 1 µM, compound concentration 1 uM, replicate 1
Entries and their Population Apoptotic (%)
Answer format: numeric, % implied, no suffix.

Solved entries:
CCCC(CCC)C(=O)O: 42
N#Cc1c(N)nc(SCc2csc(-c3ccc(Cl)cc3)n2)c(C#N)c1-c1ccc(OCCO)cc1: 43
Cc1ccc(/C(=C\CN2CCCC2)c2ccccn2)cc1: 52
CN1CCN(c2nc3cc(C(F)(F)F)ccc3n3cccc23)CC1.O=C(O)/C=C\C(=O)O.O=C(O)/C=C\C(=O)O: 50
O=C(O)c1cc2ccccc2c(Cc2c(O)c(C(=O)O)cc3ccccc23)c1O: 54

Identify the reported Population Apoptotic (%) for the following entry. C[C@H](NC(=O)c1c(C(F)F)nn(C)c1Oc1cccc(C(F)(F)F)c1)c1ccc(C(=O)O)cc1
26

Identify the reported Population Apoptotic (%) for the following entry. COc1cc(NC(=O)CCN2CCC(OC(=O)Nc3ccccc3-c3ccccc3)CC2)c(Cl)cc1CNC[C@H](O)c1ccc(O)c2[nH]c(=O)ccc12
53

Identify the reported Population Apoptotic (%) for the following entry. Cc1ccccc1C(=O)Nc1ccc(C(=O)N2CCCC(N(C)C)c3ccccc32)cc1.Cl (configuration not stated)
52

Identify the reported Population Apoptotic (%) for the following entry. CCCn1c(=O)c2[nH]c(C3CCCC3)nc2n(CCC)c1=O
38

Identify the reported Population Apoptotic (%) for the following entry. CC(C)(C)c1ccc(S(=O)(=O)Nc2ccc(Cl)cc2C(=O)c2cc[n+]([O-])cc2)cc1
63

Identify the reported Population Apoptotic (%) for the following entry. CCNC1(C(N)=O)CCN(c2ncnc3c2nc(-c2ccccc2Cl)n3-c2ccc(Cl)cc2)CC1
26

Identify the reported Population Apoptotic (%) for the following entry. C[C@@H]1C[C@H]2[C@@H]3CCC4=CC(=O)C=C[C@]4(C)[C@@]3(F)[C@@H](O)C[C@]2(C)[C@@]1(O)C(=O)CO
62

Identify the reported Population Apoptotic (%) for the following entry. O=C(NCCO)c1cccc(-c2cc(Nc3ccc(OC(F)(F)F)cc3)ncn2)c1
46

Identify the reported Population Apoptotic (%) for the following entry. CN1CCN2c3ncccc3Cc3ccccc3C2C1 (configuration not stated)
44

Identify the reported Population Apoptotic (%) for the following entry. CC[C@H]1OC(=O)[C@H](C)[C@@H](O[C@H]2C[C@@](C)(OC)[C@@H](O)[C@H](C)O2)[C@H](C)[C@@H](O[C@@H]2O[C@H](C)C[C@H](N(C)C)[C@H]2O)[C@@]2(C)CC(C)=C(O2)[C@H](C)[C@@H](O)[C@]1(C)O
37

Identify the reported Population Apoptotic (%) for the following entry. CC(=O)NCCc1c(Cc2ccccc2)[nH]c2ccccc12
41

Identify the reported Population Apoptotic (%) for the following entry. COc1cc(C(=O)N(CCCc2ccccc2)Cc2ccc(CC(=O)O)cc2)cc(OC)c1C
63
